Reference for the values: paper PMC8245786

Would you kindly list Vd/F for each of these molecules?
method notes: Pharmacokinetics of AE-PM components and their phase II metabolites in rat plasma after single oral administration (UHPLC-MS/MS, with and without sulfatase hydrolysis)
experimental setup: rat, plasma, po, 50 g/kg, Vz/F, Normal group rats; oral AE-PM 50 g/kg; plasma; n = 6
Write the answer as a number in L/kg, unit excluded.

Reported Vd/F, molecule Cc1cc(O)c2c(c1)C(=O)c1cc(O)cc(O)c1C2=O [Emodin, emodin] : ____
31.3

Request: COc1cc(O)c2c(c1)C(=O)c1cc(C)cc(O[C@@H]3O[C@H](CO)[C@@H](O)[C@H](O)[C@H]3O)c1C2=O [P-glu, physcion-8-O-β-D-glucoside]
143

Request: O=C1c2cccc(O)c2C(=O)c2c(O)cc(CO)cc21 [Aloe-emodin, aloe-emodin]
28.7

Request: COc1cc(O)c2c(c1)C(=O)c1cc(C)cc(O)c1C2=O [Physcion, physcion]
17.6
